Molecular target: human adenosine A2BR (Homo sapiens)
Construct: expressed in transfected cells; host or cells: CHO cells
Sequence (P29275 whole entry): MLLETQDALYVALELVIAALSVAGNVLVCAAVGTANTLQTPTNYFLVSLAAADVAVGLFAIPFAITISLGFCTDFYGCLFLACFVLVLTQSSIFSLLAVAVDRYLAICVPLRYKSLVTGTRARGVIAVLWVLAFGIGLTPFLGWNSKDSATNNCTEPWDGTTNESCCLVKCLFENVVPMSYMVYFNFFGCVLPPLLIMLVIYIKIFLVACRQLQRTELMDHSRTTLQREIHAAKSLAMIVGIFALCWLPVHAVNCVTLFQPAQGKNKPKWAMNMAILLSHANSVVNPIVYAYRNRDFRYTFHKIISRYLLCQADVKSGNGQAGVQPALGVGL
Test: Radioligand binding at human adenosine A2B receptor vs. [3H]PSB-603
Settings: human recombinant receptor in CHO cells; read-out: A2BR vs. [³H]PSB-603 Ki ± SEM
Property: Ki

Lab book: Ki of `CCCn1c(=O)c2c(nc(NCc3ccccc3Cl)n2C)n(C)c1=O` noted as 832 nM

Lab book: Ki of `CCCCCn1c(=O)c2c(nc(NCc3ccccc3Cl)n2C)n(C)c1=O` noted as > 1000 nM

Lab book: Ki of `C#CCn1c(=O)c2c(nc(NCc3c(F)cccc3Cl)n2C)n(C)c1=O` noted as > 1000 nM

Lab book: Ki of `CCCn1c(=O)c2c(nc(NCc3c(F)cccc3Cl)n2C)n(C)c1=O` noted as 687 nM

Lab book: Ki of `CCCn1c(=O)c2c(nc(NCc3cccc(Cl)c3)n2C)n(C)c1=O` noted as > 1000 nM

Lab book: Ki of `CCCn1c(=O)c2c(nc(NCc3ccccc3F)n2C)n(C)c1=O` noted as > 1000 nM

Lab book: Ki of `Cn1c(NCc2ccccc2Cl)nc2c1c(=O)n(Cc1ccc(Cl)cc1)c(=O)n2C` noted as > 1000 nM

Lab book: Ki of `CCCn1c(=O)c2c(nc(NCc3ccc(OC)c(OC)c3)n2C)n(C)c1=O` noted as > 1000 nM

Lab book: Ki of `CCCn1c(=O)c2c(nc(NCc3ccccc3Br)n2C)n(C)c1=O` noted as > 1000 nM

* * *

Record form. Attribute: melting point. Fill in for each entry.

Lab book: melting point of `CCCn1c(=O)c2c(nc(NCc3cccc(Br)c3)n2C)n(C)c1=O` noted as 220 to 222 °C

Lab book: melting point of `CCCCn1c(=O)c2c(nc(NCc3ccccc3Cl)n2C)n(C)c1=O` noted as 181 to 183 °C

Lab book: melting point of `C#CCn1c(=O)c2c(nc(NCc3ccccc3Cl)n2C)n(C)c1=O` noted as 223 to 225 °C

Lab book: melting point of `CCCn1c(=O)c2c(nc(NCc3cccc(Cl)c3)n2C)n(C)c1=O` noted as 185 to 187 °C

Lab book: melting point of `C#CCn1c(=O)c2c(nc(NCc3ccccc3Cl)n2C)n(C2CC2)c1=O` noted as 172 to 173 °C

Lab book: melting point of `C#CCn1c(=O)c2c(nc(NCc3c(F)cccc3Cl)n2C)n(C2CC2)c1=O` noted as 186 to 187 °C

Lab book: melting point of `C#CCn1c(=O)c2c(nc(NCc3cccc(Br)c3)n2C)n(C)c1=O` noted as 248 to 250 °C

Lab book: melting point of `C#CCn1c(=O)c2c(nc(NCc3ccc(OC)c(OC)c3)n2C)n(C)c1=O` noted as 247 to 249 °C

Lab book: melting point of `CCCn1c(=O)c2c(nc(NCc3c(F)cccc3Cl)n2C)n(C)c1=O` noted as 241 to 243 °C

Lab book: melting point of `C#CCn1c(=O)c2c(nc(NCc3c(F)cccc3Cl)n2C)n(C)c1=O` noted as 276 to 278 °C

Lab book: melting point of `Cn1c(NCc2ccccc2Cl)nc2c1c(=O)n(Cc1ccc(Cl)c(Cl)c1)c(=O)n2C` noted as 198 to 203 °C

Lab book: melting point of `C#CCn1c(=O)c2c(nc(NCc3cccc(OC)c3)n2C)n(C)c1=O` noted as 217 to 219 °C

Lab book: melting point of `CCCn1c(=O)c2c(nc(NCc3cccc(OC)c3)n2C)n(C)c1=O` noted as 173 to 175 °C

Lab book: melting point of `CCCn1c(=O)c2c(nc(NCc3ccccc3Cl)n2C)n(C)c1=O` noted as 190 to 191 °C

Lab book: melting point of `C#CCn1c(=O)c2c(nc(NCc3ccccc3F)n2C)n(C2CC2)c1=O` noted as 190 to 192 °C

Lab book: melting point of `Cn1c(NCc2ccccc2Cl)nc2c1c(=O)n(Cc1ccccc1)c(=O)n2C` noted as 205 to 208 °C

Lab book: melting point of `C#CCn1c(=O)c2c(nc(NCc3ccccc3Br)n2C)n(C)c1=O` noted as 210 to 212 °C

Lab book: melting point of `Cn1c(NCc2ccccc2Cl)nc2c1c(=O)n(Cc1ccc(Cl)cc1)c(=O)n2C` noted as 228 to 230 °C

Lab book: melting point of `CCCCCn1c(=O)c2c(nc(NCc3ccccc3Cl)n2C)n(C)c1=O` noted as 177 to 180 °C

Lab book: melting point of `C#CCn1c(=O)c2c(nc(NCc3cccc(Cl)c3)n2C)n(C)c1=O` noted as 234 to 236 °C

* * *

Target: human adenosine A3R (Homo sapiens, UniProt P0DMS8)
Construct: expressed in transfected cells; host or cells: CHO cells
Sequence (P0DMS8 whole entry): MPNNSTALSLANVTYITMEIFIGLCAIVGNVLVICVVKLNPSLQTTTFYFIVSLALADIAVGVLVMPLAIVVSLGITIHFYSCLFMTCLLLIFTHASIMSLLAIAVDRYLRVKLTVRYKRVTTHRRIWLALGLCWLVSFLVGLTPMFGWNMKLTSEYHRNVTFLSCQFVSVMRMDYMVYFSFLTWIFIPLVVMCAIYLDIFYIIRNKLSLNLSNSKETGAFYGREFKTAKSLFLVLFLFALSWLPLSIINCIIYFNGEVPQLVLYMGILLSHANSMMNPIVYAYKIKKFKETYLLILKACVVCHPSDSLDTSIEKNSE
Test: Radioligand binding at human adenosine A3 receptor vs. [3H]PSB-11
Details: 1 µM; CHO cells; read-out: A3R vs. [H³]PSB-11 % Inhibition ± SEM at 1 µM
Property: inhibition at 1 µM (%)
Give the quantity in %, number only.

Lab book: inhibition at 1 µM of `Cn1c(NCc2ccccc2Cl)nc2c1c(=O)n(Cc1ccc(Cl)c(Cl)c1)c(=O)n2C` noted as 40

Lab book: inhibition at 1 µM of `CCCn1c(=O)c2c(nc(NCc3ccc(OC)c(OC)c3)n2C)n(C)c1=O` noted as -5

Lab book: inhibition at 1 µM of `C#CCn1c(=O)c2c(nc(NCc3ccccc3F)n2C)n(C2CC2)c1=O` noted as -2

Lab book: inhibition at 1 µM of `C#CCn1c(=O)c2c(nc(NCc3ccccc3Cl)n2C)n(C)c1=O` noted as 9

Lab book: inhibition at 1 µM of `CCCn1c(=O)c2c(nc(NCc3ccccc3Br)n2C)n(C)c1=O` noted as 8

Lab book: inhibition at 1 µM of `CCCCCn1c(=O)c2c(nc(NCc3ccccc3Cl)n2C)n(C)c1=O` noted as 13

Lab book: inhibition at 1 µM of `CCCCn1c(=O)c2c(nc(NCc3ccccc3Cl)n2C)n(C)c1=O` noted as 11

Lab book: inhibition at 1 µM of `C#CCn1c(=O)c2c(nc(NCc3ccccc3Cl)n2C)n(C2CC2)c1=O` noted as 16

Lab book: inhibition at 1 µM of `CCCn1c(=O)c2c(nc(NCc3cccc(Br)c3)n2C)n(C)c1=O` noted as 11

Lab book: inhibition at 1 µM of `CCCn1c(=O)c2c(nc(NCc3ccccc3F)n2C)n(C)c1=O` noted as 6

Lab book: inhibition at 1 µM of `C#CCn1c(=O)c2c(nc(NCc3c(F)cccc3Cl)n2C)n(C2CC2)c1=O` noted as 16

Lab book: inhibition at 1 µM of `CCCn1c(=O)c2c(nc(NCc3ccccc3Cl)n2C)n(C)c1=O` noted as 4

Lab book: inhibition at 1 µM of `C#CCn1c(=O)c2c(nc(NCc3ccc(OC)c(OC)c3)n2C)n(C)c1=O` noted as 2

Lab book: inhibition at 1 µM of `C#CCn1c(=O)c2c(nc(NCc3cccc(Br)c3)n2C)n(C)c1=O` noted as 7

Lab book: inhibition at 1 µM of `C#CCn1c(=O)c2c(nc(NCc3ccccc3F)n2C)n(C)c1=O` noted as 21

Lab book: inhibition at 1 µM of `Cn1c(NCc2ccccc2Cl)nc2c1c(=O)n(Cc1ccc(Cl)cc1)c(=O)n2C` noted as 31

Lab book: inhibition at 1 µM of `C#CCn1c(=O)c2c(nc(NCc3c(F)cccc3Cl)n2C)n(C)c1=O` noted as 21

Lab book: inhibition at 1 µM of `C#CCn1c(=O)c2c(nc(NCc3ccccc3Br)n2C)n(C)c1=O` noted as 13

* * *

Target: human adenosine A1R (Homo sapiens, UniProt P30542)
Construct: expressed in transfected cells; host or cells: CHO cells
Sequence (P30542 1-326): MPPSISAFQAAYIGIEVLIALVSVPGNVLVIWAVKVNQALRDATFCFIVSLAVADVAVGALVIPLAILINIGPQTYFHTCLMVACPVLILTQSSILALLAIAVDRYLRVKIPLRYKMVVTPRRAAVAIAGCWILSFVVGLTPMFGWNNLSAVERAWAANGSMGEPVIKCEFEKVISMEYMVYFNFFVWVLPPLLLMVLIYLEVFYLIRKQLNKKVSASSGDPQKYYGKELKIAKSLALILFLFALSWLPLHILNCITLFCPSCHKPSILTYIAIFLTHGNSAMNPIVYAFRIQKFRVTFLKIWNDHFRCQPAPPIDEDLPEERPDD
Experiment: Radioligand binding at human adenosine A1 receptor vs. [3H]CCPA
Settings: human recombinant receptor in CHO cells; read-out: A1R vs. [³H]CCPA Ki ± SEM
Property: Ki (nM)
Give the quantity in nM, number only.

Lab book: Ki of C#CCn1c(=O)c2c(nc(NCc3ccccc3Cl)n2C)n(C)c1=O [compound 19] noted as 407

Lab book: Ki of C#CCn1c(=O)c2c(nc(NCc3ccccc3Cl)n2C)n(C2CC2)c1=O [compound 27] noted as 247

Lab book: Ki of C#CCn1c(=O)c2c(nc(NCc3ccccc3F)n2C)n(C)c1=O [compound 21] noted as 353

Origin of measurements: paper PMC10531311
